Reference source for all entries: ChEMBL document CHEMBL4196246

# System: THP-1
# Measurement notes: Immunosuppressive activity in PMA-differentiated human THP1 cells assessed as inhibition of LPS-stimulated IL-6 production by flow cytometry
# Type: functional, cell-based
pIC50: −log10 of the molar value.
Measured parameter: pIC50

Please review the entries below; each comes with its answer.
| Molecule | System tested | pIC50 |
| --- | --- | --- |
| CN1[C@H](CCCCC(=O)O)C[C@H](O)[C@@H]1Cc1ccccc1 | THP-1 | 4.66 |
| C[C@@H](O)CCCCCCC[C@@H]1C[C@H](O)[C@H](Cc2ccccc2)N1C | THP-1 | 4.85 |
| CCCC(O)CCCCC[C@@H]1C[C@H](O)[C@H](Cc2ccccc2)N1C (mixture of isomers) | THP-1 | 4.80 |
| CN1[C@H](CCCCCCC(=O)O)C[C@H](O)[C@@H]1Cc1ccccc1 | THP-1 | 5.00 |

1 = CC(C)=CCC/C(C)=C/Cc1cc(-c2coc3cc(O)ccc3c2=O)ccc1O
2 = CN1[C@H](CCCCCC(=O)O)C[C@H](O)[C@@H]1Cc1ccccc1
3 = CN1[C@H](CCC(=O)O)C[C@H](O)[C@@H]1Cc1ccccc1
4 = CN1[C@H](CCCCCCCCC(=O)O)C[C@H](O)[C@@H]1Cc1ccccc1
5 = CC[C@@H](O)CCCCCC[C@@H]1C[C@H](O)[C@H](Cc2ccccc2)N1C
q: Put the items in sequence by pIC50, from largest down. Response format: the labels, sorted as the prompt asks.
a: 4, 5, 1, 2, 3
(4: 6.96, 5: 6.72, 1: 6.17, 2: 5.09, 3: 4.68)
